Value source: patent US20120065187A1

# Experimental Target: human H4 (Homo sapiens, UniProt Q9H3N8)
# Construct: host or cells: CHO-K1
# Sequence (Q9H3N8 whole entry): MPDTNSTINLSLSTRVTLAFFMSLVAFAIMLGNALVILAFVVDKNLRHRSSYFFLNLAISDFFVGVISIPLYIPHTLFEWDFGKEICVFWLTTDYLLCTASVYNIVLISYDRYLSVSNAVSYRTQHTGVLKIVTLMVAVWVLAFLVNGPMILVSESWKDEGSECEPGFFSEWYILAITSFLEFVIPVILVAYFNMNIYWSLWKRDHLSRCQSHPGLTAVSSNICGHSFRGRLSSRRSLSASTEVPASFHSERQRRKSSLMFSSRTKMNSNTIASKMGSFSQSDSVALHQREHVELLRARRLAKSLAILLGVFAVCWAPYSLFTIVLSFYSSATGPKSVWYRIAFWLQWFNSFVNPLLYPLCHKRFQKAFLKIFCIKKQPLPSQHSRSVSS
# Run Description: In vitro histamine receptor cell-based assay (aequorin bioluminescence), H4 antagonism
# Experimental Parameters: CHO-K1 cells expressing human H4, aequorin and Gα16; histamine at EC80; read-out: H4 Antagonist EC50
EC50 listing for selected compounds.

Clc1ccc2nc(OC3CCNCC3)c3nncn3c2c1 ... > 10 µM
CN1CCN(c2nc3cc(F)c(C(F)(F)F)cc3n3nnnc23)CC1 ... < 10 µM
Clc1ccc2nc(N3CCNCC3)n3nc(Cc4ccccc4)nc3c2c1 ... > 10 µM
Cc1nc2c(N3CCNCC3)nc3ccc(Br)cc3n2n1 ... < 10 µM
CN1CCN(c2nc3cc(Br)ccc3n3nnnc23)CC1 ... < 10 µM

Recorded EC50 (compound CN1CCN(c2nc3ccc(Cl)cc3c3nc(Cc4ccccc4)nn23)CC1 ): > 10 µM

Recorded EC50 (compound Cn1cc2c(n1)c(N1CCNCC1)nc1ccc(Cl)cc12 ): < 10 µM

Recorded EC50 (compound CN1CCN(c2nc3c(F)cc(Br)cc3n3cnnc23)CC1 ): < 10 µM
